Tested on: giant foxtail (Setaria faberi)
Test: Test G Pre-Emergence Protocol
Format: in vivo
Details: Setaria faberi, pre-emergence, 312 h, 250 g ai/ha, evaluated after 13 days, read-out: Foxtail, Giant damage rating (100=total damage to plant; 0=no damage to plant)
Assign class 1 to entries whose pest or weed control at 250 g/ha meets or exceeds 60%; assign class 0 to the rest.

>  <molecule>
Cc1ccc([C@H]2CN(C)C(=O)[C@@H]2C(=O)Nc2ccccc2F)cc1Cl (racemic)

>  <class>
class 1

$$$$
>  <molecule>
CON1C[C@@H](c2cccc(C(F)(F)F)c2)[C@H](C(=O)Nc2cccc(F)c2F)C1=O (racemic)

>  <class>
class 1

$$$$
>  <molecule>
CN1C[C@@H](c2ccc(C(F)(F)F)cc2)[C@H](C(=O)Nc2cc(Cl)n[nH]2)C1=O (racemic)

>  <class>
class 0

$$$$
>  <molecule>
CN1C[C@H](c2ccc(F)c(F)c2)[C@@H](C(=O)Nc2cnccc2C(F)(F)F)C1=O (racemic)

>  <class>
class 1

$$$$
>  <molecule>
CN1C[C@H](c2cccc(C(C)(C)C#N)c2)[C@@H](C(=O)Nc2ccccc2S(C)(=O)=O)C1=O (racemic)

>  <class>
class 0

$$$$
>  <molecule>
CCOc1cc([C@@H]2CN(C)C(=O)[C@H]2C(=O)Nc2cccc(F)c2C)ccc1C(F)(F)F (racemic)

>  <class>
class 1

$$$$
>  <molecule>
Cc1c(F)ccc(NC(=O)[C@@H]2C(=O)N(C)C[C@H]2c2ccc(C(F)(F)F)cc2)c1F (racemic)

>  <class>
class 1

$$$$
>  <molecule>
Cc1c(F)cccc1NC(=O)[C@@H]1C(=O)N(C)C[C@H]1c1cccc(OCC2CC2)c1 (racemic)

>  <class>
class 1

$$$$
>  <molecule>
CN1C[C@H](c2ccc(C(F)(F)F)cc2)[C@@H](C(=O)Nc2nccc(C(F)(F)F)c2F)C1=O (racemic)

>  <class>
class 0

$$$$
>  <molecule>
Cc1c(F)cccc1NC(=O)[C@@H]1C(=O)N(C)C[C@H]1c1cccc(OCC(F)(F)F)c1 (racemic)

>  <class>
class 1

$$$$
>  <molecule>
CCOc1cc([C@@H]2CN(C)C(=O)[C@H]2C(=O)Nc2cccc(F)c2F)cc(C(F)(F)F)n1 (racemic)

>  <class>
class 1

$$$$
>  <molecule>
CN1C[C@H](c2ccc(C(F)(F)F)cc2)[C@@H](C(=O)Nc2ncc(Cl)cc2Cl)C1=O (racemic)

>  <class>
class 0

$$$$
>  <molecule>
CN1C[C@H](c2ccc(C(F)(F)F)cc2)[C@@H](C(=O)Nc2cnccc2F)C1=O (racemic)

>  <class>
class 0

$$$$
>  <molecule>
Cc1ccc([C@H]2CN(C)C(=O)[C@@H]2C(=O)Nc2ccc(F)nc2F)cc1

>  <class>
class 1

$$$$
>  <molecule>
CCOc1ccc(C2CN(C)C(=O)C2C(=O)Nc2cccc(F)c2F)cc1F (stereo not shown)

>  <class>
class 1

$$$$
